# maps each entry to its GFP response, % of DMSO
assay: modulators of CIT2-GFP expression in yeast, confirmation, S. cerevisiae, GFP fusion, cherry picks, mother/daughter gates (AID 2274); conditions: S. cerevisiae CIT2-GFP strain, flow cytometry, 3 h; measured here: mother cell gate; at 10 µM; stronger effect = higher value
The answer is to be given in %; state only the numeric part.

Below are worked cases with known answers.
compound=CCOC(=O)CSC1=NC(=O)/C(=C/c2ccc(Br)cc2)S1 numeric_result=79.8
compound=O=C(O)c1ccccc1C(=O)N1CCN(c2cccc(Cl)c2)CC1 numeric_result=95.6

// field: GFP response, % of DMSO; key: COc1ccc(C(=O)NNC(=S)NC(=O)/C=C/c2cccs2)cc1 ; value = 100

Quick note, GFP response, % of DMSO for COc1ccc(NC(=O)c2ccccc2NC(=O)c2ccccc2)cc1 landed at 102

# compound CN(C)c1ccc(/C=C/c2cc[n+](C)cc2)cc1 ; its GFP response, % of DMSO = 134

Lookup result for CC(NC(=O)C1CCC(CNS(=O)(=O)c2ccccc2)CC1)c1ccccc1 (centres undefined) ; measured GFP response, % of DMSO: 96.8

---

Measured GFP response vs DMSO, listed per entry.
assay: RPL19A-GFP modulators, yeast TOR pathway, confirmation, cell-based, S. cerevisiae, flow cytometry, cherry picks, mother/daughter gates (AID 2270); conditions: S. cerevisiae RPL19A-GFP strain, 3 h, at 10 µM, stronger effect = lower value, 100 = same GFP as DMSO wells
Calls of active or inactive are those of the source.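 Rule for the calls: active = GFP response below 50% of the DMSO control; inconclusive = fewer than 70 events counted for a yeast strain; inactive = the rest.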

These recorded examples may help you get a feel for the data.
compound=CCc1nnc(NC(=O)c2nc(S(=O)(=O)Cc3cccc(C)c3)ncc2Cl)s1 assay_metric="GFP response vs DMSO" result="93.9% (inactive)"
compound=Cc1nn2c(N3CCN(C(=O)c4ccco4)CC3)cc(C(C)(C)C)nc2c1-c1ccccc1 assay_metric="GFP response vs DMSO" result="98.2% (inactive)"
compound=CN(C)S(=O)(=O)c1cc(NC(=O)CN2CCOCC2)ccc1Cl assay_metric="GFP response vs DMSO" result="97.6% (inactive)"
compound=CSC(SC)=C(C#N)C(=O)c1ccccc1 assay_metric="GFP response vs DMSO" result="102% (inactive)"
compound="O=C1CC(Sc2nnnn2C2CCCCC2)C(=O)N1c1ccccc1 (configuration not stated)" assay_metric="GFP response vs DMSO" result="94.3% (inactive)"

In the following, a different compound is considered.
Entry under test: CCOC(=O)/C(=N\NC(=O)c1ccccc1)c1ccccc1 . Its GFP response vs DMSO was 97.2% (inactive)

---

assay: LAP4-GFP expression modulators in yeast, confirmation, cell-based, cherry picks, flow cytometry, mother/daughter gates (AID 2271);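 note: ratio of sample to DMSO plate mean so 100% equals DMSO level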; details: S. cerevisiae LAP4-GFP strain, 3 h, measured here: mother cell gate response, at 10 µM, stronger effect = higher value, 100 means same as DMSO control
Assay Metric: GFP response relative to DMSO (%)
All answers are understood in %, so give the number only.

Previously resolved entries follow.
compound=CCOC(=O)c1cc(S(=O)(=O)N2CCN(C(=O)OCC)CC2)cn1C numeric_result=107
compound=Cc1nn2c(N3CCOCC3)c3c(nc2c1-c1ccccc1)CCCC3 numeric_result=102
compound="O=C(CSc1nc2ccsc2c(=O)n1CC1CCC(C(=O)O)CC1)c1ccc(F)cc1 (stereo unspecified)" numeric_result=91.1
compound=COc1cccc(OCC(=O)N2CCCc3ccccc32)c1 numeric_result=102
compound=Cc1cccc(NC(=O)CCCN2C(=O)c3cccc4cccc(c34)C2=O)c1 numeric_result=94.1
compound=O=[N+]([O-])c1ccc(Sc2ccc(Cl)c(Cl)c2)nc1 numeric_result=100
compound=COc1cc(/C=C2\C(=O)ON=C2c2ccc(Cl)cc2)ccc1O numeric_result=128
compound=O=[N+]([O-])c1ccccc1OCCOc1ccccc1[N+](=O)[O-] numeric_result=101

Per the records, this compound ( CCOc1ccc(C(Nc2cccnc2)c2cc(Cl)c3cccnc3c2O)cc1 (stereo unspecified) ) has GFP response relative to DMSO equal to 170

Just so you know, measured GFP response relative to DMSO for COc1ccc(OC(=O)c2cccc(S(=O)(=O)N3CCCC3)c2)cc1 came out at 89.7

Per the record, CCNC(=O)c1ccccc1-c1nc(-c2ccccc2Cl)no1 has GFP response relative to DMSO of 104

In plain terms, COc1cccc(C(=O)C(C#N)=C(SC)SC)c1 has a documented GFP response relative to DMSO of 126

Looking up O=C(c1ccccc1)N1CCN(c2ccccc2F)CC1 , I found its GFP response relative to DMSO recorded as 96.4

The reported GFP response relative to DMSO of the compound CCc1sc(C(=O)N2CCc3ccccc32)cc1C was 114

---

assay: RPL19A-GFP modulators, yeast TOR pathway, confirmation, cell-based, S. cerevisiae, flow cytometry, cherry picks, mother/daughter gates (AID 2270); conditions: S. cerevisiae RPL19A-GFP strain, 3 h, measured here: daughter cell gate, at 10 µM, stronger effect = lower value, 100 = same GFP as DMSO wells
Measured GFP response vs DMSO values are reported for all entries that follow.
Write the value in % as a bare number.

# count of solved cases: 3
molecule_smiles=CN1CC(=O)NC1=NC(=O)C12CC3CC(CC(C3)C1)C2 quantity_unit=% numeric_result=93.9
molecule_smiles=O=[N+]([O-])c1cccnc1S(=O)(=O)c1ccccc1 quantity_unit=% numeric_result=94.7
molecule_smiles=COc1ccc2c(c1)c(C(C)=O)c(C)n2-c1ccccc1OC quantity_unit=% numeric_result=97.8

Now consider a different compound.
According to the records, this compound COc1ccccc1C(=O)NNC(=S)NC(=O)c1cccs1 displays GFP response vs DMSO of 126

---

assay: LAP4-GFP expression modulators in yeast, confirmation, cell-based, cherry picks, flow cytometry, mother/daughter gates (AID 2271);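 note: ratio of sample to DMSO plate mean so 100% equals DMSO level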; conditions: S. cerevisiae LAP4-GFP strain, 3 h, measured here: daughter cell gate response, at 10 µM, stronger effect = higher value, 100 means same as DMSO control
GFP response relative to DMSO by entry:
Write it as a number; the unit % goes unstated.

Measured GFP response relative to DMSO of CS(=O)(=O)N1CCc2cc(C(=O)Nc3ccc(COCC(F)(F)F)cc3)ccc21 : 97.2

CN1Cc2sc(NC(=S)NC(=O)c3ccccc3)c(C#N)c2CC1(C)C has a reported GFP response relative to DMSO of 104

Looking up COC(=O)/C(=C/c1c[nH]c2ccccc12)[N+](=O)[O-] , I see its GFP response relative to DMSO listed as 149

The recorded GFP response relative to DMSO for entry Cc1cccn2c(=O)c(/C=C(\C#N)C(=O)NCc3ccco3)c(N3CCOCC3)nc12 equals 97.5

---

assay: RPL19A-GFP modulators, yeast TOR pathway, confirmation, cell-based, S. cerevisiae, flow cytometry, cherry picks, mother/daughter gates (AID 2270); conditions: S. cerevisiae RPL19A-GFP strain, 3 h, measured here: daughter cell gate, at 10 µM, stronger effect = lower value, 100 = same GFP as DMSO wells
Assay Metric: GFP response vs DMSO (%)
Just the number please, in %, no unit attached.

molecule_smiles=O=Nc1c(O)c2ccccc2c2ccccc12 numeric_result=109
molecule_smiles=Cc1cc2ccccn2c1C(=O)c1ccc([N+](=O)[O-])o1 numeric_result=106
molecule_smiles=Cc1ccccc1CN1CCSc2sccc2C1=O numeric_result=94.2
molecule_smiles=CCN(CC)c1ccc(/C=C/c2ccc3ccc(OC)cc3[n+]2CC)cc1 numeric_result=101

In the following, a different compound is considered.
CC(=O)c1ccc(Sc2ccccn2)c([N+](=O)[O-])c1 yielded GFP response vs DMSO of 99.4

---

Below, each of the molecules is paired with its reported GFP response relative to DMSO value.
assay: LAP4-GFP expression modulators in yeast, confirmation, cell-based, cherry picks, flow cytometry, mother/daughter gates (AID 2271);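 note: ratio of sample to DMSO plate mean so 100% equals DMSO level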; settings: S. cerevisiae LAP4-GFP strain, 3 h, measured here: mother cell gate response, at 10 µM, stronger effect = higher value, 100 means same as DMSO control
Write the answer as a number in %, unit excluded.

molecule=N#Cc1nccnc1S(=O)(=O)c1cccs1 assay_metric="GFP response relative to DMSO" numeric_result=162
molecule=O=C1C(=O)c2ccc(-c3ccccc3)cc2-c2ccccc21 assay_metric="GFP response relative to DMSO" numeric_result=124
molecule=CCOc1ccc(S(=O)(=O)N2CCc3ccccc3C2)cc1 assay_metric="GFP response relative to DMSO" numeric_result=102
molecule=Nc1cccnc1S(=O)(=O)c1cccc(C(F)(F)F)c1 assay_metric="GFP response relative to DMSO" numeric_result=94
molecule=CC(=O)Oc1ccc(/C=c2\sc3ncnn3c2=O)cc1 assay_metric="GFP response relative to DMSO" numeric_result=125
molecule="CCOc1cc(N2CCOCC2)c(OCC)cc1NC(=O)C(NC(=O)c1ccco1)C(C)C (centres undefined)" assay_metric="GFP response relative to DMSO" numeric_result=93.1
molecule=Cc1ccccc1CN1CCSc2sccc2C1=O assay_metric="GFP response relative to DMSO" numeric_result=113
molecule=O=C(COC(=O)/C=C/c1cccs1)Nc1nc(-c2cccc(Br)c2)cs1 assay_metric="GFP response relative to DMSO" numeric_result=89
molecule=CN(C)c1ccc(N=Cc2nc(-c3ccccc3)oc2OC(=O)c2cccc(Cl)c2)cc1 assay_metric="GFP response relative to DMSO" numeric_result=99.3
molecule=Cc1cc(NCCCn2ccnc2)n2ncc(-c3ccccc3)c2n1 assay_metric="GFP response relative to DMSO" numeric_result=96.2

Lab note: measured GFP response relative to DMSO of O=C1c2cccc3cccc(c23)C(=O)N1c1nccs1 was 112

The molecule identified as Cc1c(NC2=C(Cl)C(=O)N(c3ccccc3Cl)C2=O)c(=O)n(-c2ccccc2)n1C registered its GFP response relative to DMSO at 94.1

Briefly, GFP response relative to DMSO measured for Cc1ccc(C(=O)c2c3ccccc3[n+]([O-])n2CCO)cc1 : 94

molecule C[C@@H](C(=O)Nc1nc2ccc(F)cc2s1)N1C(=O)C2CC=CCC2C1=O (some centres undefined) , GFP response relative to DMSO observed: 104

GFP response relative to DMSO reading for O=C(CN1C(=O)c2cccc3cccc(c23)C1=O)N1CCCCCC1 : 98.4
